meta.source: patent US8178530B2

// values below are reported EC50
- Tested on: MMP1 expression by SFs
- experiment: 'MMP assay': MMP1 expression by 'complex trigger' activated synovial fibroblasts (MMP1 ELISA)
- Assay type: cell-based, human
- experimental parameters: Homo sapiens, Fibroblast, RASFs, 48 hrs

Cc1cnc2c(Nc3ccc(N4CCOCC4)cc3)ncc(-c3cn[nH]c3)n12    > 1000 nM
CCN(CC)CCNC(=O)c1ccc(Nc2ncc(-c3cccs3)n3ccnc23)cc1    > 1000 nM
CCN(CCO)c1ccc(Nc2ncc(-c3ccc(C(N)=O)cc3)n3ccnc23)cc1    101 to 500 nM
CN1CCN(c2ccc(Nc3ncc(-c4cc(C(N)=O)cs4)n4ccnc34)cc2)CC1    501 to 1000 nM
CN(C)C(CNC(=O)c1ccc(Nc2ncc(-c3cc[nH]c(=O)c3)n3ccnc23)cc1)c1cccnc1 (centres unmarked)    > 1000 nM

**Q:** So what does the record say about EC50 for `CN1CCN(c2ccc(Nc3ncc(-c4ccc(C(N)=O)o4)n4ccnc34)cc2)CC1` ?
**A:** > 1000 nM

**Q:** So what does the record say about EC50 for `CN1CCN(c2ccc(Nc3ncc(-c4cc(F)c(C(N)=O)c(F)c4)n4ccnc34)cc2)CC1` ?
**A:** > 1000 nM

**Q:** So what does the record say about EC50 for `CN1CCN(c2ccc(Nc3ncc(-c4cncc(C(N)=O)c4)n4ccnc34)cc2)CC1` ?
**A:** > 1000 nM
